Origin of values: patent US8653100B2

# targetOfAssay: human GlyT1c (Homo sapiens (Human), UniProt P48067)
# Sequence (P48067 whole entry): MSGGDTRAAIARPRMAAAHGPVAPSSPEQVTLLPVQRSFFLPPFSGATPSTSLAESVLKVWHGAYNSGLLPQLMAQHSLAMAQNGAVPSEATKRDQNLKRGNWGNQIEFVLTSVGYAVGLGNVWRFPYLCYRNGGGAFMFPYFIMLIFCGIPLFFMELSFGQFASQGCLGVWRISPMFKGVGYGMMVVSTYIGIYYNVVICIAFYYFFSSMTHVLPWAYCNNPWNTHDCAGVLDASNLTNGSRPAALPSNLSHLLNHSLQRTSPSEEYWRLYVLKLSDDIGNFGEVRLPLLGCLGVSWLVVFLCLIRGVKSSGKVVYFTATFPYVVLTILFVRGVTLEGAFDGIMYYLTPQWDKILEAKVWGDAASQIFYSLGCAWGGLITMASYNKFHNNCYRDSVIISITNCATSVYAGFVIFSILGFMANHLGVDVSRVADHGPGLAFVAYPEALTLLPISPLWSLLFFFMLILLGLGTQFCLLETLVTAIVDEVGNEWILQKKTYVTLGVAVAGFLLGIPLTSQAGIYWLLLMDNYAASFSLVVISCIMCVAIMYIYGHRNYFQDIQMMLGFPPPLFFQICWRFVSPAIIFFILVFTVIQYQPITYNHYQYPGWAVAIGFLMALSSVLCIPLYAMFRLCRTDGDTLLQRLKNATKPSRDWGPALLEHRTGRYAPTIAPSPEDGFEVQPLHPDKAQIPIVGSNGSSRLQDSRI
# testDescription: [3H]-Glycine uptake into recombinant CHO cells expressing human GlyT1
# Type: cell-based
# settings: hGlyT1c_5_CHO cells, 200 nM [3H]-glycine
pIC50: −log10 of the molar value. Where a name gives a salt, the structure may show the parent alone.
The reader will find reported pIC50 values listed item by item below.

• CC(C)NC(=O)NCCOc1ccc2c(c1)C(C1(c3ccc(Cl)cc3)CCC1)NCC2 (centres unmarked) [Example 36, hydrochloride] = ≥ 4.00
• O=S(=O)(NCCOc1ccc2c(c1)C(C1(c3ccc(Cl)cc3)CCC1)NCC2)c1cccc2cccnc12 (centres unmarked) [Example 30, hydrochloride] = ≥ 6.00

// query Fill in the blank: the reported pIC50 of NCCS(=O)(=O)NCCOc1ccc2c(c1)C(C1(c3ccc(Cl)cc3)CCC1)NCC2 (centres unmarked) [Example 154] is ____.
// result ≥ 6.00

// query Entry O=S(=O)(Cc1ccccc1)NCCOc1ccc2c(c1)C(C1(c3ccc(Cl)cc3)CCC1)NCC2 (centres unmarked) [Example 32, hydrochloride] please
// result ≥ 5.00

// query Another compound to look at: O=S(=O)(CCCN1CCCCC1)NCCOc1ccc2c(c1)C(C1(c3ccc(Cl)cc3)CCC1)NCC2 (centres unmarked) [Example 200]
// result ≥ 5.00

// query Consider next the compound CC(=O)NCCOc1ccc2c(c1)C(C1(c3ccc(Cl)cc3)CCC1)NCC2 (centres unmarked) [Example 6] in the same way.
// result ≥ 5.00

// query Next: O=S(=O)(NCCOc1ccc2c(c1)C(C1(c3ccc(Cl)cc3)CC1)NCC2)c1cccnc1 (centres unmarked) [Example 85]
// result ≥ 7.00

// query Same question for CCCN1CCN(S(=O)(=O)NCCOc2ccc3c(c2)C(C2(c4ccc(Cl)cc4)CCC2)NCC3)CC1 (centres unmarked) [Example 183, dihydrochloride] please.
// result ≥ 5.00
